test system: IL-1β release from PBMCs; assay: IL-1β release from PBMCs measured by ELISA; format: cell-based; conditions: 2.5 μM, LPS or PHA stimulated human PBMCs
Below, each of the molecules is paired with its reported IL-1β release from PBMCs (% control) value.

molecule	IL-1β release from PBMCs (% control)
CC(=O)Oc1ccc2c(=O)c(Oc3ccccc3)coc2c1	123 % control
COc1cc(O)c2c(c1OC)/C=C/C[C@H](O)[C@H](O)C(=O)/C=C\C[C@H](C)OC2=O [RAA, radicicol analog A, reference compound]	4 % control
COc1ccc(Oc2coc3cc(O)ccc3c2=O)cc1	136 % control
COC(=O)c1ccc(Oc2coc3cc(O)ccc3c2=O)cc1	105 % control

Where these numbers come from: patent US11576892B2
